- Test target: Botulinum neurotoxin type F (Clostridium botulinum)
- Measurement protocol: Botulinum neurotoxin type F light chain protease inhibitors, multiplex microsphere dose response (AID 602338)
- Condition summary: multiplex microsphere protease cleavage assay, flow cytometry
Calls of active or inactive are those of the source. How the calls were made is not given here.
Endpoint name: EC50

CCS(=O)(=O)N1N=C(c2cccc(NS(C)(=O)=O)c2)CC1c1ccccc1 (centres undefined); > 20 µM (inactive)
O=C(Nc1ccc2nc(-c3cccs3)c(-c3cccs3)nc2c1)N1CCOCC1; > 20 µM (inactive)
Oc1[nH]c(N=C2N=c3ccccc3=N2)c2ccccc12; > 20 µM (inactive)
O=[N+]([O-])c1cccc(-c2cn3nc(-c4ccccc4)c(-c4ccccc4)nc3n2)c1; > 20 µM (inactive)
COc1ccc(OC)c(-c2nc3cc4ccccc4cc3nc2-c2ccccc2)c1; > 20 µM (inactive)
Cn1c(=O)c(/C=C/c2ccccc2)nc2ccccc21; > 20 µM (inactive)
CCOc1ccc2nc3cc(NCc4ccc(OC)cc4)ccc3c(N)c2c1; > 20 µM (inactive)
CS(=O)(=O)N1N=C(c2ccccc2)CC1c1ccc2c(c1)OCO2 (centres undefined); > 20 µM (inactive)
CSc1nnc2c(n1)c(C)nn2-c1cccc(C)c1; > 20 µM (inactive)
COc1ccc(C2CC(c3cccs3)=NN2c2nc(C)c(C(C)=O)s2)cc1OC (centres undefined); > 20 µM (inactive)
CCSc1nnc(-c2sc3nnc(-c4ccccc4)c(-c4ccccc4)c3c2N)o1; > 20 µM (inactive)
c1ccc(-c2cn3nc(-c4ccccc4)c(-c4ccccc4)nc3n2)cc1; > 20 µM (inactive)
O=C(Nc1ccc2nc(-c3cccs3)c(-c3cccs3)nc2c1)NC1CC1; > 20 µM (inactive)
O=c1c(/C=C(\O)c2ccccc2)nc2ccccc2n1-c1ccccc1; > 20 µM (inactive)
